Consider the following compounds; for each one, report its Emax.
biological target: Peroxisome proliferator-activated receptor γ (Homo sapiens); experiment: cell-based; settings: read-out: Emax%PPARγ
Record the result as number plus unit.

Prompt line: Provide the documented Emax with Peroxisome proliferator-activated receptor γ (Homo sapiens) as the system for CC(C)c1cc(C(C)(C)c2ccc(O)c(C(C)C)c2)ccc1O
Response line: 22%

Prompt line: Recorded Emax for Oc1ccc(Sc2ccc(O)cc2)cc1 with Peroxisome proliferator-activated receptor γ (Homo sapiens), please?
Response line: 20%

Prompt line: Could you share what Emax was measured for Cc1cc(Cc2cc(C)c(O)c(C)c2)cc(C)c1O [TMBPF, Bis(3,5-dimethyl-4-hydroxyphenyl)methane] , tested on Peroxisome proliferator-activated receptor γ (Homo sapiens)?
Response line: 18%

Prompt line: So what Emax did CC(C)(c1ccc(O)c(-c2ccccc2)c1)c1ccc(O)c(-c2ccccc2)c1 [BPPH, 2,2-Bis(2-hydroxy-5-biphenylyl)propane] get with Peroxisome proliferator-activated receptor γ (Homo sapiens)?
Response line: 12%

Prompt line: Give Peroxisome proliferator-activated receptor γ (Homo sapiens) Emax for O=C(OCc1ccccc1)c1ccc(O)cc1 [BzPB, Benzyl 4-hydroxybenzoate]
Response line: 16%

Prompt line: Lookup: Emax / Peroxisome proliferator-activated receptor γ (Homo sapiens) / CC(C)(c1cc(Cl)c(O)c(Cl)c1)c1cc(Cl)c(O)c(Cl)c1
Response line: 32%

Prompt line: Provide the documented Emax with Peroxisome proliferator-activated receptor γ (Homo sapiens) as the system for O=S(=O)(c1ccc(O)cc1)c1ccc(OCc2ccccc2)cc1 [BPS-MPE, 4-[4-(benzyloxy)benzenesulfonyl]phenol]
Response line: 25%

Prompt line: Emax of Cc1ccc(S(=O)(=O)NC(=O)Nc2ccc(Cc3ccc(NC(=O)NS(=O)(=O)c4ccc(C)cc4)cc3)cc2)cc1 on Peroxisome proliferator-activated receptor γ (Homo sapiens)?
Response line: 47%

Prompt line: Request body: readout Emax, system Peroxisome proliferator-activated receptor γ (Homo sapiens), query Cc1ccc(S(=O)(=O)NC(=O)Nc2cccc(OS(=O)(=O)c3ccc(C)cc3)c2)cc1 . Return the value.
Response line: 16%

Prompt line: Form entry - test system: Peroxisome proliferator-activated receptor γ (Homo sapiens); read-out: Emax; compound: C=CCOc1ccc(S(=O)(=O)c2ccc(O)cc2)cc1 [BPS-MAE, 4-[[4-(Allyloxy)phenyl]sulfonyl]phenol]
Response line: 22%

* * *

Test system: HEK293H, HEK293T, H4IIe, MCF7 and SH-SY5Y cells
Details: median cytotoxicity over all cell lines
Procedure: Cell culture conditions and bioassay protocols including response detection are provided in Text S2.1–2.4 and Table S3. − Cell viability was determined from cell confluency using an IncuCyte S3 Live-Cell Analysis System (Sartorius AG, Essen, Germany) before and after exposure, except for SH-SY5Y cells (live–dead staining with Nuclear Green LcS1 and propidium iodide, Abcam, UK). […] This method has been described previously 13. Cell viability of SH-SY5Y cells was measured […]
Measured Property: IC10, median (µM)
State the answer as a number, implicitly in µM.

Prompt line: If you can, please state the reported IC10, median value of O=S(=O)(c1ccc(O)cc1)c1ccc(O)cc1 .
Response line: 561

Prompt line: Please report the recorded IC10, median for Oc1ccc(Sc2ccc(O)cc2)cc1 .
Response line: 95.1

Prompt line: Any idea what IC10, median was measured for C=CCOc1ccc(S(=O)(=O)c2ccc(O)cc2)cc1 [BPS-MAE, 4-[[4-(Allyloxy)phenyl]sulfonyl]phenol] ?
Response line: 190

Prompt line: Requested read-out: IC10, median. Entry: COC(=O)C(c1ccc(O)cc1)c1ccc(O)cc1 [Bz, Methyl bis(4-hydroxyphenyl)acetate]
Response line: 373

Prompt line: Need IC10, median of Cc1cc(Cc2cc(C)c(O)c(C)c2)cc(C)c1O [TMBPF, Bis(3,5-dimethyl-4-hydroxyphenyl)methane] , thanks.
Response line: 12.7

Prompt line: Given the compound O=C(OCc1ccccc1)c1ccc(O)cc1 [BzPB, Benzyl 4-hydroxybenzoate] , what is its reported IC10, median?
Response line: 132

Prompt line: Name the reported IC10, median value associated with the compound Oc1ccc(C2(c3ccc(O)cc3)CCCCC2)cc1 [BPZ, 1,1'-Bis(4-hydroxyphenyl)cyclohexane]
Response line: 52.8

Prompt line: Look up IC10, median for this compound: Cc1ccc(S(=O)(=O)NC(=O)Nc2cccc(OS(=O)(=O)c3ccc(C)cc3)c2)cc1
Response line: 19.1

* * *

system: MCF7 (ARE/MMP); details: MMP bioassay cytotoxicity; dosing range all; log-logistic model
Can you tell me logIC10 for the items I'm about to list?
Write the number on its own, no unit after it.

Prompt line: Find logIC10 (MCF7 (ARE/MMP)) for the entry Cc1cc(Cc2cc(C)c(O)c(C)c2)cc(C)c1O [TMBPF, Bis(3,5-dimethyl-4-hydroxyphenyl)methane]
Response line: -4.85

Prompt line: Field: logIC10 (MCF7 (ARE/MMP)). Entry: CC(C)(c1cc(Cl)c(O)c(Cl)c1)c1cc(Cl)c(O)c(Cl)c1
Response line: -4.03

Prompt line: logIC10 of CC(C)c1cc(C(C)(C)c2ccc(O)c(C(C)C)c2)ccc1O on MCF7 (ARE/MMP)?
Response line: -5.06

* * *

Could you please report measured logEC10 for the items listed next?
biological target: Peroxisome proliferator-activated receptor γ (Homo sapiens, UniProt P37231); test: cell-based; conditions: PPARγ bioassay; dosing range all; log-logistic model
Sequence (P37231 238-505 limits assumed): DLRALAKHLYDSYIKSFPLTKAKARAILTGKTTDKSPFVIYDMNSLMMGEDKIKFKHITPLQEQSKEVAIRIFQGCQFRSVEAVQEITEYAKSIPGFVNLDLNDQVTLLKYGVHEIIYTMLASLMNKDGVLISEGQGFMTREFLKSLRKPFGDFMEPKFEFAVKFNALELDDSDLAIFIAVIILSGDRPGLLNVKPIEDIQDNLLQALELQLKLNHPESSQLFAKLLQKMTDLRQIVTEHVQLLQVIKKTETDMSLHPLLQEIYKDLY
The answer should be a number; do not append a unit.

Prompt line: Any idea what logEC10 came out for Cc1ccc(S(=O)(=O)NC(=O)Nc2cccc(OS(=O)(=O)c3ccc(C)cc3)c2)cc1 on Peroxisome proliferator-activated receptor γ (Homo sapiens, UniProt P37231)?
Response line: -6.17

Prompt line: Which logEC10 is reported with Peroxisome proliferator-activated receptor γ (Homo sapiens, UniProt P37231) for this entry: C=CCOc1ccc(S(=O)(=O)c2ccc(O)cc2)cc1 [BPS-MAE, 4-[[4-(Allyloxy)phenyl]sulfonyl]phenol] ?
Response line: -6.25

Prompt line: Short answer please: logEC10, Peroxisome proliferator-activated receptor γ (Homo sapiens, UniProt P37231), entry Cc1cc(Cc2cc(C)c(O)c(C)c2)cc(C)c1O [TMBPF, Bis(3,5-dimethyl-4-hydroxyphenyl)methane]
Response line: -6.48

Prompt line: Short answer please: logEC10, Peroxisome proliferator-activated receptor γ (Homo sapiens, UniProt P37231), entry CC(C)(c1ccc(O)c(-c2ccccc2)c1)c1ccc(O)c(-c2ccccc2)c1 [BPPH, 2,2-Bis(2-hydroxy-5-biphenylyl)propane]
Response line: -6.26

Prompt line: Missing value: logEC10, Peroxisome proliferator-activated receptor γ (Homo sapiens, UniProt P37231), entry Oc1ccc(Sc2ccc(O)cc2)cc1 . Fill in?
Response line: -6.02

Prompt line: For the record CC(C)c1cc(C(C)(C)c2ccc(O)c(C(C)C)c2)ccc1O , what value of logEC10 is listed for Peroxisome proliferator-activated receptor γ (Homo sapiens, UniProt P37231)?
Response line: -6.93

* * *

Please go through the items and note down their logIC10.
tested on: H4IIe (AhR CALUX); conditions: rat, 24 h
Just the number.

Prompt line: Please give the measured logIC10 for this molecule: CC(C)CC(C)(c1ccc(O)cc1)c1ccc(O)cc1 [BP-MIBK, 4,4'-(1,3-Dimethylbutylidene)diphenol]
Response line: -4.05

Prompt line: Recorded logIC10 for CC(C)Oc1ccc(S(=O)(=O)c2ccc(O)cc2)cc1 [D8, 4-((4-Isopropoxyphenyl)sulfonyl)phenol] , please?
Response line: -4.56

Prompt line: What value of logIC10 has been reported for the following molecule? CC(C)(c1ccc(O)cc1)c1ccc(O)cc1 [BPA, 4,4'-(Propane-2,2-diyl)diphenol, reference compound]
Response line: -3.77

Prompt line: Which logIC10 is reported for this molecule? O=S(=O)(c1ccc(O)cc1)c1ccccc1O [2,4-BPS, 2,4'-Dihydroxydiphenyl sulfone]
Response line: -3.52

Prompt line: So what's the measured logIC10 for this one? CC(C)(c1cc(Br)c(O)c(Br)c1)c1cc(Br)c(O)c(Br)c1 [TBBPA, 3,3',5,5'-Tetrabromobisphenol A]
Response line: -3.80

* * *

test: Abiotic CYP (aCYP) oxidation, remaining parent compound (Cparent-Ratio); details: Table S11, measured simultaneously with bioassay
// NB: equality with 0.7 counts as 0.0; only Cparent-Ratio Mean strictly below is 1.0

Prompt line: For this compound, is Cparent-Ratio Mean lower than 0.7? Cc1ccc(S(=O)(=O)NC(=O)Nc2ccc(Cc3ccc(NC(=O)NS(=O)(=O)c4ccc(C)cc4)cc3)cc2)cc1
Response line: 1.0

Prompt line: Lab note: confirm whether the reported Cparent-Ratio Mean for this compound is below 0.7, equality not counting. compound: CC(C)(c1ccc(O)cc1)c1ccc(O)cc1 [BPA, 4,4'-(Propane-2,2-diyl)diphenol, reference compound]
Response line: 0.0

Prompt line: Determine if CC(C)c1cc(C(C)(C)c2ccc(O)c(C(C)C)c2)ccc1O shows Cparent-Ratio Mean strictly lower than 0.7.
Response line: 1.0

Prompt line: Please state whether Cparent-Ratio Mean is below 0.7 for Cc1cc(Cc2cc(C)c(O)c(C)c2)cc(C)c1O [TMBPF, Bis(3,5-dimethyl-4-hydroxyphenyl)methane]
Response line: 1.0

Prompt line: Strictly below 0.7 in Cparent-Ratio Mean? CC(C)(c1ccc(O)c(-c2ccccc2)c1)c1ccc(O)c(-c2ccccc2)c1 [BPPH, 2,2-Bis(2-hydroxy-5-biphenylyl)propane]
Response line: 0.0
